tested on: Candida albicans
# note: boundary value 4 µM maps to criterion not met; MIC below it maps to criterion met

CC(C)C[C@H](NC(=O)[C@H](CCCCN)NC(=O)[C@H](CCCCN)NC(=O)[C@H](Cc1ccccc1)NC(=O)[C@H](CC(C)C)NC(=O)[C@H](CCCCN)NC(=O)[C@H](CCCCN)NC(=O)[C@H](Cc1ccccc1)NC(=O)[C@H](CCCCN)NC(=O)[C@H](CCCCN)NC(=O)[C@H](CCCN=C(N)N)NC(=O)[C@H](Cc1ccccc1)NC(=O)[C@H](CCCN=C(N)N)NC(=O)[C@H](CCCCN)NC(=O)[C@H](Cc1ccccc1)NC(=O)[C@H](CCCN=C(N)N)NC(=O)CN)C(=O)N[C@@H](CO)C(N)=O | criterion not met
CC[C@H](C)[C@H](NC(=O)[C@H](CO)NC(=O)[C@@H](NC(=O)[C@H](CCCCN)NC(=O)[C@H](Cc1ccccc1)NC(=O)[C@@H]1CCCN1C(=O)[C@@H](N)[C@@H](C)O)[C@@H](C)CC)C(=O)N[C@@H](Cc1cnc[nH]1)C(=O)N[C@@H](CC(C)C)C(N)=O | criterion met
CC[C@H](C)[C@H](NC(=O)[C@H](CCCN=C(N)N)NC(=O)[C@H](CC(C)C)NC(=O)[C@H](CCCN=C(N)N)NC(=O)[C@@H](N)C(C)C)C(=O)N[C@@H](CCCN=C(N)N)C(=O)N[C@H](C(=O)N[C@@H](CCCN=C(N)N)C(=O)N[C@H](C(=O)N[C@H](C(=O)N[C@@H](CCCN=C(N)N)C(=O)N[C@@H](CCCCN)C(=O)O)[C@@H](C)CC)C(C)C)C(C)C | criterion not met

Lab note: confirm whether the reported MIC for this compound is below 4 µM, equality not counting. compound: `CC[C@H](C)[C@H](NC(=O)[C@H](CCCN=C(N)N)NC(=O)[C@H](Cc1c[nH]c2ccccc12)NC(=O)[C@H](CCCN=C(N)N)NC(=O)[C@@H](N)CCCN=C(N)N)C(=O)N[C@H](C(=O)N[C@H](C(=O)N[C@H](C(=O)N[C@@H](CCCN=C(N)N)C(=O)N[C@H](C(=O)N[C@@H](CCCN=C(N)N)C(=O)N[C@@H](CCCN=C(N)N)C(=O)O)C(C)C)[C@@H](C)CC)C(C)C)C(C)C`
criterion met

###

test system: Salmonella typhimurium KCTC 1926
measurement-type: MIC (µM)
Kindly answer with a numeric value in µM, unit omitted.

CC[C@H](C)[C@H](NC(=O)[C@H](CCCCN)NC(=O)[C@H](CO)NC(=O)[C@H](Cc1ccccc1)NC(=O)[C@H](CC(C)C)NC(=O)[C@H](CCCCN)NC(=O)[C@H](CCC(=O)O)NC(=O)[C@H](CC(C)C)NC(=O)[C@H](CCCN=C(N)N)NC(=O)[C@H](CCCCN)NC(=O)[C@H](Cc1ccccc1)NC(=O)[C@@H](NC(=O)[C@@H](N)CCCCN)C(C)C)C(N)=O [KVFKRLEKLFSKI] | 0.78
CC[C@H](C)[C@H](NC(=O)[C@H](CC(C)C)NC(=O)[C@H](CCCCN)NC(=O)[C@@H](NC(=O)[C@H](C)NC(=O)[C@H](CCC(=O)O)NC(=O)[C@H](Cc1cnc[nH]1)NC(=O)[C@@H](NC(=O)CNC(=O)[C@H](CCC(N)=O)NC(=O)[C@H](Cc1ccccc1)NC(=O)[C@@H](NC(=O)[C@H](CCCCN)NC(=O)[C@H](CCCCN)NC(=O)[C@H](CC(C)C)NC(=O)[C@H](C)NC(=O)[C@H](CC(N)=O)NC(=O)[C@@H](N)CC(C)C)C(C)C)[C@@H](C)CC)[C@@H](C)CC)C(N)=O [LNALKKVFQGIHEAIKLI] | 4
CC(C)C[C@H](NC(=O)[C@H](CCCCN)NC(=O)[C@H](CCCCN)NC(=O)[C@H](Cc1ccccc1)NC(=O)[C@H](CC(C)C)NC(=O)[C@H](CCCCN)NC(=O)[C@H](CCCCN)NC(=O)[C@H](Cc1ccccc1)NC(=O)[C@H](CCCCN)NC(=O)[C@H](CCCCN)NC(=O)[C@H](CCCN=C(N)N)NC(=O)[C@H](Cc1ccccc1)NC(=O)[C@H](CCCN=C(N)N)NC(=O)[C@H](CCCCN)NC(=O)[C@H](Cc1ccccc1)NC(=O)[C@H](CCCN=C(N)N)NC(=O)CN)C(=O)N[C@@H](CO)C(N)=O [GRFKRFRKKFKKLFKKLS] | 2

Continue with the next molecule.
Please provide the recorded MIC for CC[C@H](C)[C@H](NC(=O)[C@H](CCCN=C(N)N)NC(=O)[C@H](CCCCN)NC(=O)[C@@H](NC(=O)[C@@H](NC(=O)[C@H](CCCN=C(N)N)NC(=O)[C@@H](N)CCCCN)[C@@H](C)CC)C(C)C)C(=O)N[C@@H](CCCCN)C(=O)N[C@@H](CCCCN)C(=O)N[C@@H](Cc1c[nH]c2ccccc12)C(=O)N[C@@H](CC(C)C)C(=O)N[C@@H](CCCN=C(N)N)C(N)=O [KRIVKRIKKWLR] , tested on Salmonella typhimurium KCTC 1926.
2

Recorded values, source DBAASP.
